Study System: recombinant human MAO-B (monoamine oxidase-B) (Homo sapiens, UniProt P27338)
Construct: purchased Sigma-Aldrich
Sequence (P27338 whole entry): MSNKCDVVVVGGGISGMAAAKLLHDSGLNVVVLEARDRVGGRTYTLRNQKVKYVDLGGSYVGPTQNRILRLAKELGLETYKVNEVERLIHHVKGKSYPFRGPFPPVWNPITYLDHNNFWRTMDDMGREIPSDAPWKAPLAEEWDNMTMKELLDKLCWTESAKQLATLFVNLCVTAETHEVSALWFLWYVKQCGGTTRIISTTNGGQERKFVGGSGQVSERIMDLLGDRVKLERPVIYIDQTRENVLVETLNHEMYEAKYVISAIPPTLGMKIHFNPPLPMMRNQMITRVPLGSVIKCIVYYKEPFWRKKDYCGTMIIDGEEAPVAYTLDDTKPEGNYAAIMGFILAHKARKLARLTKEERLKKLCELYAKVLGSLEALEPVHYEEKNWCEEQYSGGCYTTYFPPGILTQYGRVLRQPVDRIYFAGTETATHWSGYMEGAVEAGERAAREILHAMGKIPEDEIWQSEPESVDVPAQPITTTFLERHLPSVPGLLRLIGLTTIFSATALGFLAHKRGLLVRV
Test Name: Activity evaluation on recombinant human MAO-B (Amplex Red/HRP-coupled assay, 1 mM benzylamine substrate)
Type: biochemical
Reported Conditions: 1 mM benzylamine substrate, read-out: Inhibitory Activity (IC50, nM) MAO-B
Structures can show the parent of a compound that is named as a salt.
Recorded Endpoint: IC50

As a guide, the following entries are already answered.
Cc1c(-c2cnn(C(F)F)c2)cccc1-n1cnn(CC(CN)=C(F)F)c1=O [Example 261, Trifluoroacetate]    > 100000 nM
CCn1cc(-c2ccc3sc(Cn4cnn(CC(CN)=C(F)F)c4=O)cc3c2)cn1 [Example 212, Trifluoroacetate]    > 100000 nM

Incoming: Retrieve IC50 measured for Cc1cc(-c2cccc(-n3cnn(CC(CN)=C(F)F)c3=O)c2C)cc2c1NC(=O)CC2 [Example 258, Trifluoroacetate] and print it.
Outgoing: > 100000 nM

---

Study System: recombinant human MAO-B (monoamine oxidase-B) (Homo sapiens, UniProt P27338)
Construct: purchased Sigma-Aldrich
Test Name: Activity evaluation on recombinant human MAO-B (Amplex Red/HRP-coupled assay, 1 mM benzylamine substrate)
Assay type: biochemical
Reported Conditions: 1 mM benzylamine, read-out: Inhibitory Activity (IC50, nM) MAO-B
Experimental: The compounds according to the present technology were evaluated in terms of activity on recombinant human VAP-1 (R&D systems) by measuring the level of hydrogen peroxide in horseradish peroxidase (HRP)-coupled reaction using Amplex Red Hydrogen Peroxide Assay Kit (Molecular Probes, Invitrogen, USA). […] The inhibitory effect of the compounds was measured as a decrease (%) in the signal rate as compared to the control group without any inhibitor (only diluted DMSO). […]
Counter-ions that a name gives are not always drawn.
Attribute: IC50

As a guide, the following entries are already answered.
NCC(Cn1ncn(Cc2ccc(-c3cc(F)c4[nH]c(=O)ccc4c3)s2)c1=O)=C(F)F [Example 137, Trifluoroacetate]    > 100000 nM
NCC(Cn1ncn(-c2ccc(-c3ccc(N4CCNCC4)cc3)c(F)c2)c1=O)=C(F)F [Example 25, Ditrifluoroacetate]    > 10000 nM

Incoming: Retrieve IC50 measured for Cc1cc(Br)ccc1-n1cnn(CC(CN)=C(F)F)c1=O [Example 6, trifluoroacetate] and print it.
Outgoing: > 100000 nM

---

Attribute: IC50
Study System: recombinant human DAO (diamine oxidase) (Homo sapiens, UniProt P19801)
Construct: purchased R&D systems
Sequence (P19801 20-751): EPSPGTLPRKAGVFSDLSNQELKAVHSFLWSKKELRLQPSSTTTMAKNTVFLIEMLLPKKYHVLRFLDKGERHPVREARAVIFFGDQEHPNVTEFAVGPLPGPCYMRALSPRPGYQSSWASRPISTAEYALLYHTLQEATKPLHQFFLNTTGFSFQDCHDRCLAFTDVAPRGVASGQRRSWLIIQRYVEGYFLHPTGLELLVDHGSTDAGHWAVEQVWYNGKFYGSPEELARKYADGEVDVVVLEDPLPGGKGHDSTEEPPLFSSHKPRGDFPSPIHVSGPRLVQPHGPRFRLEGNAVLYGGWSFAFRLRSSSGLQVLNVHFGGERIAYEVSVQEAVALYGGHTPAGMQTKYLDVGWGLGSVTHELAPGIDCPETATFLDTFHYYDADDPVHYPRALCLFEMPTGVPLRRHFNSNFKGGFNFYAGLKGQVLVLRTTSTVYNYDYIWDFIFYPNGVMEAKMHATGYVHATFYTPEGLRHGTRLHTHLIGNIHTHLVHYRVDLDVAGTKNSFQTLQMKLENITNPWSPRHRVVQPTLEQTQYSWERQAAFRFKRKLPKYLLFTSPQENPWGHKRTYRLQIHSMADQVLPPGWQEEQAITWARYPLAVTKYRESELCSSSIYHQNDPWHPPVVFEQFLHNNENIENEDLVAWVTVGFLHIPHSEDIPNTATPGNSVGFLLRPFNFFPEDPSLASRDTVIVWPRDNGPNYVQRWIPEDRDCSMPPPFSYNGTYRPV
Test Name: Activity evaluation on recombinant human DAO (Amplex Red/HRP-coupled assay, 1 mM putrescine substrate)
Type: biochemical
Reported Conditions: 1 mM putrescine, read-out: Inhibitory Activity (IC50, nM) DAO
Where a name gives a salt, the structure may show the parent alone.

As a guide, the following entries are already answered.
NCC(Cn1ncn(Cc2ccc(OCc3ccccc3)cc2)c1=O)=C(F)F [Example 96, Trifluoroacetate]    > 100000 nM
NCC(Cn1ncn(Cc2ccc(C#Cc3ccc4c(c3)NCCO4)s2)c1=O)=C(F)F [Example 164, Ditrifluoroacetate]    > 10000 nM

Could you now consider this next molecule?
Incoming: Retrieve IC50 measured for NCC(Cn1ncn(Cc2ccc(C#Cc3ccc4c(c3)CCC(=O)N4)s2)c1=O)=C(F)F [Example 165, Trifluoroacetate] and print it.
Outgoing: > 10000 nM

---

Study System: recombinant human MAO-B (monoamine oxidase-B) (Homo sapiens, UniProt P27338)
Construct: purchased Sigma-Aldrich
Test Name: Activity evaluation on recombinant human MAO-B (Amplex Red/HRP-coupled assay, 1 mM benzylamine substrate)
Type: biochemical
Reported Conditions: 1 mM benzylamine, read-out: Inhibitory Activity (IC50, nM) MAO-B
Protocol: The compounds according to the present technology were evaluated in terms of activity on recombinant human VAP-1 (R&D systems) by measuring the level of hydrogen peroxide in horseradish peroxidase (HRP)-coupled reaction using Amplex Red Hydrogen Peroxide Assay Kit (Molecular Probes, Invitrogen, USA). […] The inhibitory effect of the compounds was measured as a decrease (%) in the signal rate as compared to the control group without any inhibitor (only diluted DMSO). […]
Structures can show the parent of a compound that is named as a salt.
Attribute: IC50
Respond with the bare value in nM.

As a guide, the following entries are already answered.
Cc1cc(Br)cnc1-n1cnn(CC(CN)=C(F)F)c1=O [Example 11, Trifluoroacetate]    57000
CN1C(=O)CCc2cc(-c3cnc(-n4cnn(CC(CN)=C(F)F)c4=O)c(F)c3)ccc21 [Example 87, Trifluoroacetate]    1100
NCC(Cn1ncn(Cc2ccc(-c3ccc4c(c3)OCO4)s2)c1=O)=C(F)F [Example 126, Trifluoroacetate]    760
CN1C(=O)CCc2cc(-c3cnc(-n4cnn(CC(CN)=C(F)F)c4=O)cn3)ccc21 [Example 94, Trifluoroacetate]    860
NCC(Cn1ncn(-c2ccc(-c3ccc(C(F)(F)F)nc3)nc2)c1=O)=C(F)F [Example 40, Trifluoroacetate]    200

Incoming: Retrieve IC50 measured for CS(=O)(=O)c1ccc(-c2ccc(CCn3cnn(CC(CN)=C(F)F)c3=O)s2)cc1 [Example 173, trifluoroacetate] and print it.
Outgoing: 69000

Incoming: Retrieve IC50 measured for Cc1cc(-c2csc(Cn3cnn(CC(CN)=C(F)F)c3=O)c2)cc2c1NC(=O)CC2 [Example 151, Trifluoroacetate] and print it.
Outgoing: 26100

Incoming: Retrieve IC50 measured for NCC(Cn1ncn(-c2ccc(F)c(F)c2)c1=O)=C(F)F [Example 3, Trifluoroacetate] and print it.
Outgoing: 25000

---

Study System: recombinant human DAO (diamine oxidase) (Homo sapiens)
Construct: purchased R&D systems
Test Name: Activity evaluation on recombinant human DAO (Amplex Red/HRP-coupled assay, 1 mM putrescine substrate)
Format: biochemical
Reported Conditions: 1 mM putrescine, read-out: Inhibitory Activity (IC50, nM) DAO
Experimental: The compounds according to the present technology were evaluated in terms of activity on recombinant human VAP-1 (R&D systems) by measuring the level of hydrogen peroxide in horseradish peroxidase (HRP)-coupled reaction using Amplex Red Hydrogen Peroxide Assay Kit (Molecular Probes, Invitrogen, USA). […] The inhibitory effect of the compounds was measured as a decrease (%) in the signal rate as compared to the control group without any inhibitor (only diluted DMSO). […]
Where a name gives a salt, the structure may show the parent alone.
Recorded Endpoint: IC50 (nM)
Respond with the bare value in nM.

As a guide, the following entries are already answered.
Cc1cc(-n2cnn(CC(CN)=C(F)F)c2=O)cnc1Br [Example 13, Trifluoroacetate]    910
CN(C)S(=O)(=O)c1cccc(-c2ccc(Cn3cnn(CC(CN)=C(F)F)c3=O)s2)c1 [Example 103, trifluoroacetate]    22000
Cc1cc(-c2ccc(Cn3cnn(CC(CN)=C(F)F)c3=O)s2)cc2ccc(=O)[nH]c12 [Example 135, Trifluoroacetate]    79000
NCC(Cn1ncn(-c2ccc(Br)c(F)c2)c1=O)=C(F)F [Example 4, Trifluoroacetate]    58000
CCn1cc(-c2ccc(-n3cnn(CC(CN)=C(F)F)c3=O)cn2)cn1 [Example 45, Trifluoroacetate]    200

Incoming: Retrieve IC50 measured for NCC(Cn1ncn(-c2cc(-c3ccc(C(F)(F)F)nc3)ccn2)c1=O)=C(F)F [Example 56, Trifluoroacetate] and print it.
Outgoing: 75

Incoming: Retrieve IC50 measured for NCC(Cn1ncn(-c2cccc(Br)c2)c1=O)=C(F)F [Example 2, Trifluoroacetate] and print it.
Outgoing: 46000

---

Study System: recombinant human DAO (diamine oxidase) (Homo sapiens, UniProt P19801)
Construct: purchased R&D systems
Test Name: Activity evaluation on recombinant human DAO (Amplex Red/HRP-coupled assay, 1 mM putrescine substrate)
Assay type: biochemical
Reported Conditions: 1 mM putrescine substrate, read-out: Inhibitory Activity (IC50, nM) DAO
Counter-ions that a name gives are not always drawn.
Attribute: IC50

As a guide, the following entries are already answered.
Cn1cc(-c2ccc(Cn3cnn(CC(CN)=C(F)F)c3=O)s2)cn1 [Example 296, Trifluoroacetate]    > 100000 nM
Cc1cc(-c2ccccc2Cn2cnn(CC(CN)=C(F)F)c2=O)cc2c1NC(=O)CC2 [Example 283, Trifluoroacetate]    > 100000 nM

Incoming: Retrieve IC50 measured for Cc1cc(C#Cc2cnn(C)c2)cnc1-n1cnn(CC(CN)=C(F)F)c1=O [Example 240, trifluoroacetate] and print it.
Outgoing: 30000 nM

---

Study System: recombinant human VAP-1 (Homo sapiens)
Construct: purchased R&D systems
Sequence (Q16853 1-763): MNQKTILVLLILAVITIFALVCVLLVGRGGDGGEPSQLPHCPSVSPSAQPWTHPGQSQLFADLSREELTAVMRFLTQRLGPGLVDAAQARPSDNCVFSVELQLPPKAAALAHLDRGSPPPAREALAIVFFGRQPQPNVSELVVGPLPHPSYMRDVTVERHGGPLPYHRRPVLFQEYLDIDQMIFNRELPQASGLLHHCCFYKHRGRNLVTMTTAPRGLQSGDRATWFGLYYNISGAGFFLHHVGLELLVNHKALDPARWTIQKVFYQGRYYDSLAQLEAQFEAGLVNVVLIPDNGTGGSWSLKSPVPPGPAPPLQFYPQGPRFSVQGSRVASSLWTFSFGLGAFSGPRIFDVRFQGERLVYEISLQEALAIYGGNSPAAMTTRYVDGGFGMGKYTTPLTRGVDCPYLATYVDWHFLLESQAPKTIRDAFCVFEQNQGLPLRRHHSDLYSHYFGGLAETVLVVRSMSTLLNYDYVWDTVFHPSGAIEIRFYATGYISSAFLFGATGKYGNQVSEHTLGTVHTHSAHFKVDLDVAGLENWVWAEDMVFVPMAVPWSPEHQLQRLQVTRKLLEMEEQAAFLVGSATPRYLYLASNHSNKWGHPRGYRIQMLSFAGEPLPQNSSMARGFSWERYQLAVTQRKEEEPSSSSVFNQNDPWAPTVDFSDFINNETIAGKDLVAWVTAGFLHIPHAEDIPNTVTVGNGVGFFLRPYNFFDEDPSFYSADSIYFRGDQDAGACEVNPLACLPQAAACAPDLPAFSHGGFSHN
Test Name: Activity evaluation on recombinant human VAP-1 (Amplex Red/HRP-coupled hydrogen peroxide assay, benzylamine substrate)
Type: biochemical
Reported Conditions: recombinant human VAP-1, benzylamine substrate; read-out: Inhibitory Activity (IC50, nM) human VAP-1
Where a name gives a salt, the structure may show the parent alone.
Just a reminder that ties go to condition not met: only IC50 strictly below 1 nM counts as condition met.

Reference set (5 entries):
CN(C)c1cc(-c2cccc(-n3cnn(CC(CN)=C(F)F)c3=O)n2)ccc1F [Example 217, Trifluoroacetate]    condition not met
Cc1c(-c2ccc(N(C)C)nc2)cccc1-n1cnn(CC(CN)=C(F)F)c1=O [Example 256, Trifluoroacetate]    condition not met
Cc1cc(C#Cc2ccc3c(c2)CCC(=O)N3)cnc1-n1cnn(CC(CN)=C(F)F)c1=O [Example 249, Trifluoroacetate]    condition met
Cc1c(-c2ccc(C(F)(F)F)nc2)cccc1-n1cnn(CC(CN)=C(F)F)c1=O [Example 255, Trifluoroacetate]    condition not met
CN(C)C(=O)c1cccc(-c2ccc(Cn3cnn(CC(CN)=C(F)F)c3=O)s2)c1 [Example 181, trifluoroacetate]    condition not met

Attention now shifts to the item below.
Incoming: Consider CC(C)n1cc(-c2ccc(Cn3cnn(CC(CN)=C(F)F)c3=O)s2)cn1 [Example 184, Trifluoroacetate] . Does its IC50 lie strictly below 1 nM?
Outgoing: condition not met
